Each item that follows carries a reported apparent Kd.
Test system: MS2 coat protein
procedureSummary: apparent Kd, MS2 coat protein; higher = weaker binding; RNA-MaP array; FMN 200 µM where present
protocolConditions: ligand present: flavin mononucleotide; designed as: ON switch for flavin mononucleotide

sequenceContent: GGACGUCACAUUUACAUGAGGAUCACCCAUGUCGAAAGACAUGAGGAUAUGCAUCCUAAUUGGAUGCAGAAGGCAUGGACGUCC
apparent Kd, nM: 245

sequenceContent: UGCGAACAGGCUAACAUGAGGAUCACCCAUGUGGACUCAUGGUAGGAUAUCGGGAAGGAGGAAACCGAGAAGGGCCGGUGAGCA
apparent Kd, nM: 77.5

sequenceContent: GGGAGACAUGAGGAUCACCCAUGUGAAAACGUGUGAGGAUAUGUAUGGAAACCAUACUGUACAGAAGGCACUUGUC
apparent Kd, nM: 41

sequenceContent: GCAAAGCCUGACAUGAGGAUCACCCAUGUUAGAUUGUUAUGUCAGGAUAUUGUCUAGCAACUAGACAAGAAGGGAUGCUUUGCC
apparent Kd, nM: 50.9

sequenceContent: UUUACAUGAGGAUCACCCAUGUAUAGAACGGUUCAUUAAAGUGAGGAUAUACGAAAUUUAAAAUCGUAGAAGGCACUGGGUACA
apparent Kd, nM: 19.1

sequenceContent: UGGUACUAGGGAGGAUAUGGGAAGAUACAUGAGGAUCACCCAUGUUUAAGAAUGCCGAGAGGGAACUAGAAGGCCCUAGUACCU
apparent Kd, nM: 14.5

sequenceContent: GCCAUCACAUGAGGAUAUGCUCCCGUUUCGGGAGCAGAAGGCAUGUCAUCAGACAUGAGGAUCACCCAUGUAGUUAAGAUGGCA
apparent Kd, nM: 15.1

sequenceContent: ACAUGAGGAUCACCCAUGUAUACAUAGGAUAUUGGUGAUCAGGGAUGUUUUACAGGAUAUGUCUGCGAGAAGGAUGCAAGUACU
apparent Kd, nM: 94.7

sequenceContent: GGUCCCUACGCACAGGAUAUUCUUUUGGCAACAUGAGGAUCACCCAUGUGUGCCGAUCAUGGUUAGAAGAAGGGUGGUAGGGACC
apparent Kd, nM: 15.7

sequenceContent: UAUCAUUACACGAAGGAUAUCGAUAAUUGAACAUGAGGAUCACCCAUGUGAUAUAUUUUACAGUUCGAGAAGGUCGAGGGUGAAG
apparent Kd, nM: 18

sequenceContent: GUGGCCUAGGCACAGGAUAUGUUUCUCGUAACAUGAGGAUCACCCAUGUGCCUUUGAGAUUUUAUGCAGAAGGGUGCACGCCACG
apparent Kd, nM: 24.3

sequenceContent: GCGAUUAAGUAGAAGGUACGAUAUAAAUCAAUGUAAGGAUAUACUGACAUGAGGAUCACCCAUGUUUAAUUUGUUUACUGUCGC
apparent Kd, nM: 5.99

sequenceContent: CCCAGUGCAUCAGGAUAUCCUCACAUGAGGAUCACCCAUGUAAUGAGCCGAGGAGAAGGGAUGUGAACUCCAGUUACCGAUCGU
apparent Kd, nM: 42.2

---

System: MS2 coat protein
procedureSummary: apparent Kd, MS2 coat protein; higher = weaker binding; RNA-MaP array; FMN 200 µM where present
protocolConditions: designed as: OFF switch for flavin mononucleotide; no ligand
Each item that follows carries a reported apparent Kd.
property: apparent Kd

sequenceContent: GGAUGGUAGGGAGGAUAUGACAUGAGGAUCACCCAUGUGAAACGUCCUAGGUCAGAAGGCCCAUAAGUCAAAACCCAAAAUGUG
recordedResult: 16.7 nM
//
sequenceContent: GGUCCACAUGAGGAUCACCCAUGUCAGGAUAUACACGGCACAAUAAUAAGUGCCACCCGUAGAAGGGACGCUGG
recordedResult: 14.8 nM
//
sequenceContent: CCGGCUGCUGUGAGGAUAUGCCUGUGCGCCCGCGGGCAGAAGGCACAUGAGGAUCACCCAUGUCCUGCGGUCCC
recordedResult: 39 nM
//
sequenceContent: GUGCGGUGAGGAUAUACGUAGGUGAAAAUCUGUGUGUUCCUACAUGAGGAUCACCCAUGUAGAAGGCAUGGCAC
recordedResult: 148 nM
//
sequenceContent: AGAAACUACGAGAAGGACAUAUGGUUCUUCAGAUACAUGAGGAUCACCCAUGUAGGAUAUCGUAGUUUCAGGAUCGUGAGAUCA
recordedResult: 6.51 nM
//
sequenceContent: GCCUGAUCAACUCUAGGCCCAGACAGAAGGGCACACGGUCUAAGUCACAUGAGGAUCACCCAUGUGCAGGAUAUGUCUCGACUC
recordedResult: 8.03 nM
//
sequenceContent: CGGUGCUGAGGAUAUACAUGAGGAUCACCCAUGUGUGCCAGCUAGAAGACUGGCACUUGUAGAAGGCAGUACUG
recordedResult: 11.4 nM
//
sequenceContent: GGUUAUUGCAAGGAUAUGCUUUUUUUUGAUAUUGCAGAAGGUGCAACAUGAGGAUCACCCAUGUUGGAUGGGUU
recordedResult: 119 nM
//
sequenceContent: UGAUCGAGAGAUCUUAGAUUCUGGUAGGAUAUACAUUAUGAAAACUUUACAUGAGGAUCACCCAUGUAGAAGGACUAGAGUCUA
recordedResult: 7.74 nM
